For each record, write down the corresponding IC50.
MEASURED_ON: Disintegrin and metalloproteinase domain-containing protein 17 (Sus scrofa, UniProt O77636)
Sequence (O77636 whole entry, the tested form may be a part): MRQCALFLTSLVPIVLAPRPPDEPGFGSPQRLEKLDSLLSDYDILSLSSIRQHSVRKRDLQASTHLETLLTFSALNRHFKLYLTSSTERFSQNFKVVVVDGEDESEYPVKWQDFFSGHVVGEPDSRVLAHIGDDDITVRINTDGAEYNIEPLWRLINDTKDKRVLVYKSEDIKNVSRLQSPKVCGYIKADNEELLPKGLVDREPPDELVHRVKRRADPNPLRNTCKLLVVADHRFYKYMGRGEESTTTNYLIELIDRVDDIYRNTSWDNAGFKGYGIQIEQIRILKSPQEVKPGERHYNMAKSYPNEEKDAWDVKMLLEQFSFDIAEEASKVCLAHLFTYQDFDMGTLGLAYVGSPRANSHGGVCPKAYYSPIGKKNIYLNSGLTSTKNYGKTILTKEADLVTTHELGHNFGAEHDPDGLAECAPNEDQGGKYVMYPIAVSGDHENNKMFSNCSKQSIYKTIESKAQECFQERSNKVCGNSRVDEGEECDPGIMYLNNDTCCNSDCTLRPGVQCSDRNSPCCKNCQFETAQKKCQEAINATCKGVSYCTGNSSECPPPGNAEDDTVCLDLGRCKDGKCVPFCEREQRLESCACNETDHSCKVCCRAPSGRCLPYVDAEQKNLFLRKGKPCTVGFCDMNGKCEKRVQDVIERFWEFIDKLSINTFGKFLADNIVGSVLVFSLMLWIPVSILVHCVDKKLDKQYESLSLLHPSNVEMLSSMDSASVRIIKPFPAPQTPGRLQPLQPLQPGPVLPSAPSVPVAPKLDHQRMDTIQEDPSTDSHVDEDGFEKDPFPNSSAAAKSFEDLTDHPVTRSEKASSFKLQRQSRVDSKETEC
Entry rule: numbers only, all in nM.

Q) Suppose we examine the compound Cc1cc(COc2ccc(S(=O)(=O)CC3(CC(=O)NO)CCN(C(C)C)C3)cc2)c2ccccc2n1 (centres undefined) ; what IC50 value has been reported?
A) 1.6

Q) Same for Cc1cc(COc2ccc(S(=O)(=O)CC3(CC(=O)NO)CCCN(C)C3)cc2)c2ccccc2n1 (centres undefined)
A) 3.6

Q) Same for CONC(=O)[C@H]1CCCN(C)[C@@H]1C(=O)Nc1ccc(OCc2cc(C)nc3ccccc23)cc1
A) 6.2
